- System: LOX IMVI melanoma
- test details: NCI tumour cell line growth inhibition, 48 h
readout type: TGI

Examples from the recorded data:
| chemical structure | measured target | value measured |
| --- | --- | --- |
| Cn1ccnc1Sc1ccc(/C=N/NC(=O)c2ccccc2O)cc1[N+](=O)[O-] | LOX IMVI melanoma | > 100 µM |
| COc1ccc(Cl)cc1Nc1nc(C(F)(F)F)ccc1C(=O)N/N=C/c1c(Cl)cccc1Cl | LOX IMVI melanoma | > 100 µM |

Ask: Recorded TGI of "CSc1c(C(=O)Nc2ccccc2)c(N)nn1-c1ccccc1" , please.
Reply: > 100 µM

====

- System: MALME-3M melanoma
- test details: NCI tumour cell line growth inhibition, 48 h
# TGI values compiled below

Examples from the recorded data:
| molecule | TGI |
| --- | --- |
| Cc1cn(C2CC(n3cc(Cn4cc(F)c(=O)[nH]c4=O)nn3)C(CO)O2)c(=O)[nH]c1=O (stereo not given) | > 100 µM |
| CC1=NOC2(C1)/C(=N/O)CCC/C2=N\O (stereo not given) | > 100 µM |
| COc1ccc2c3c1OC1CC(O)C=CC31CCN(C)C2 (stereo not given) | > 150 µM |
| CCOC(=O)/C(O)=C1\C(=O)N(C)C(=O)C1c1ccc(OC)c(OC)c1 (stereo not given) | > 100 µM |

Ask: GET /values?readout=TGI&system=MALME-3M melanoma&item= CC1(C)OP23(NC(=O)OC2(C(F)(F)F)c2ccccc2O3)OC1(C)C (stereo not given)
Reply: > 100 µM

====

- System: RXF 393 renal
- test details: NCI tumour cell line growth inhibition, 48 h
Where a SMILES comes first, the peptide text is derived from it. [ ]: non-standard residue; d: D form. The star is where a group is joined. Phe(4-NO2) = N[CH](Cc1ccc([N+](=O)[O-])cc1)C(=O)O; Boc = CC(C)(C)OC(=O)*; OBn = c1ccc(CO*)cc1
readout type: TGI

Examples from the recorded data:
| molecule | TGI |
| --- | --- |
| COc1ccc(-c2nn3ncccc3c2-c2ccnc(Nc3ccc(Cl)c(C(F)(F)F)c3)n2)cc1 | > 24 µM |
| CC(C)CCCC(C)[C@H]1CCC2[C@@H]3CCC4Cc5nc6c(nc5C[C@]4(C)C3CC[C@@]21C)CC1CC[C@@H]2C(C[C@@H](O)[C@@]3(C)C2C[C@@H]2OC4(CCC(C)CO4)C(C)[C@@H]23)[C@@]1(C)C6 (some centres undefined) | > 100 µM |
| COC(=O)CCC(NC(=O)OC(C)(C)C)C(=O)NC(Cc1ccc([N+](=O)[O-])cc1)C(=O)NCC(=O)OCc1ccccc1 (centres undefined) (Boc-Glu(OMe)-[Phe(4-NO2)]-Gly-OBn; configuration not given here) | > 72.8 µM |
| N#CCC(=O)Nc1cccc(C(F)(F)F)c1 | > 100 µM |
| CCNC(=O)Nc1cccc(C)n1 | > 100 µM |
| CC(C)(CO)CNc1cc(=O)[nH]c(N)n1 | > 100 µM |

Ask: Recorded TGI of COC1=CC(=O)c2ccccc2C1(CCC=C(C)C)C1=NC(C)(C)CO1 (centres undefined) , please.
Reply: > 100 µM

Ask: Now consider "CCOC/N=C(/N)NC#N" .
Reply: > 100 µM

Ask: Now consider "Cc1ccc(F)cc1NC(=O)O/N=C(\Cl)C(C)C" .
Reply: 9.51 µM

Ask: Now consider O=[N+]([O-])C1C(c2ccccc2)C12c1ccccc1-c1ccccc12 (centres undefined) .
Reply: 6.24 µM

Ask: Now consider "Cc1cc2c(c(C#N)c1C)NC(=O)CCC2=O" .
Reply: > 100 µM

Ask: Now consider "CC1=C(C(=O)Nc2ccccc2C)C(c2ccccc2)C(C(=O)Nc2ccccc2C)=C(C)N1" .
Reply: 71.6 µM

Ask: Now consider COc1cc(OC)c2c(O)cc(CC(C)O)cc2c1 (centres undefined) .
Reply: > 100 µM

Ask: Now consider CCCC/C=C1\CCC(CN2CCCCC2)C1=O (centres undefined) .
Reply: 18.1 µM

Ask: Now consider "COc1ccc2c(c1)[nH]c(=O)c1c3cc(C)c(C)cc3cn21" .
Reply: 1.22 µM

====

- Tested on: MDA-MB-435
- test details: NCI tumour cell line growth inhibition, 48 h
# TGI values compiled below

| compound | measured target | TGI |
| --- | --- | --- |
| CC(=O)OC[C@H]1O[C@@H](O[C@H]2[C@H](OC(C)=O)C=CO[C@@H]2COC(C)=O)C(OC(C)=O)[C@H]2OC(C)(C)O[C@H]21 (stereo partly drawn) | MDA-MB-435 | > 100 µM |
| CS(=O)(=O)CCNCc1nc(-c2ccc3ncnc(Nc4ccc(F)c(Cl)c4)c3c2)cs1 | MDA-MB-435 | > 25 µM |

Turning now to a further record.
Ask: Recorded TGI of "COc1ccc2nc3cc(Cl)ccc3c(NCCCCCC(=O)NC(COc3cnc4c(ccc5cccnc54)c3)COc3cnc4c(ccc5cccnc54)c3)c2c1" , please.
Reply: > 100 µM

====

- Test system: SF-268 CNS
- test details: NCI tumour cell line growth inhibition, 48 h
readout type: TGI

Ask: Recorded TGI of "CCOC(=O)[C@@]1(C)C=C2O[C@@H]3OC4(CCCCC4)O[C@@H]3C2=C2C(O)=CC=C(O)[C@]21C(=O)OC" , please.
Reply: > 68 µM

Ask: Now consider "COc1cccc2cc(C)c(C(=O)c3ccccc3)nc12" .
Reply: > 100 µM

Ask: Now consider "Cc1c(C)c(C)c(-n2[nH]c(=O)n(C)c2=O)c(C)c1C" .
Reply: > 100 µM

Ask: Now consider "CC(=O)NNc1nc(C)c(C(/C=C/c2ccc3c(c2)OCO3)=N/Nc2ccccc2)s1" .
Reply: > 100 µM

Ask: Now consider COc1cccc(N2C(=O)C3c4[nH]c5ccccc5c4C4c5ccccc5CCC4C3C2=O)c1 (stereo not given) .
Reply: > 10 µM

====

# TGI values compiled below
- Tested on: 786-0 renal
- test details: NCI tumour cell line growth inhibition, 48 h
Non-standard residues stand in square brackets, D forms with d. Residues, ends and D or L forms follow the SMILES beside them. *: point of attachment. ONb = O=[N+]([O-])c1ccc(CO*)cc1; AllylGly = C=CC[CH](N)C(=O)O; Boc = CC(C)(C)OC(=O)*

Examples from the recorded data:
| compound | TGI |
| --- | --- |
| CC(=O)NCCCCNCCCNC(C)=O | > 100 µM |
| Cc1ccc(C)n2c1nc1ccc3ccccc3c12 | > 100 µM |
| O=C(CNc1nncs1)NO | > 100 µM |
| COc1ccc(CCn2cnc3ccccc32)cc1 | > 100 µM |
| CC(=O)Oc1ccc(/C=C/C(=O)O[C@@H](C)[C@H](C)OC(=O)/C=C/c2ccc(OC(C)=O)c(OC(C)=O)c2)cc1OC(C)=O | > 100 µM |

Ask: Recorded TGI of CC1(C)OC2OC(COC(=O)C=[N+]=[N-])C3OC(C)(C)OC3C2O1 (configuration not stated) , please.
Reply: > 100 µM

Ask: Now consider C=CCC(NC(=O)OC(C)(C)C)C(=O)NC(CCC(=O)OCc1ccc([N+](=O)[O-])cc1)C(N)=O (configuration not stated) (Boc-[AllylGly]-Glu(ONb)-NH2; configuration not given here) .
Reply: 52 µg/mL

====

# TGI values compiled below
- System: A549 NSCLC
- test details: NCI tumour cell line growth inhibition, 48 h

| molecule | TGI |
| --- | --- |
| O=C1NCc2ccc3c(-c4cccc(Cl)c4)c[nH]c3c21 | > 50 µM |

Turning now to a further record.
Ask: Recorded TGI of "Cc1cnc2c(C)ccc([N+](=O)[O-])c2c1NCCCN(C)C" , please.
Reply: > 100 µM

====

- System: UACC-62 melanoma
- test details: NCI tumour cell line growth inhibition, 48 h
readout type: TGI

Examples from the recorded data:
| molecule | TGI |
| --- | --- |
| COC(=O)C1CC2(CC3=C1CCCC3)OCCO2 (stereo unspecified) | > 100 µM |
| CC(=O)c1ccc(N=Nc2ccc3nonc3c2N)cc1 | > 100 µM |
| Cc1ccc(OCC(=O)N2N=C(c3ccccc3)CC2(O)c2ccccc2)cc1 (stereo unspecified) | > 100 µM |
| O=C(O)CSc1n[nH]c(-c2ccc(O)cc2)n1 | > 100 µM |

Ask: Recorded TGI of CCC(CCCN)Nc1cc(OC)cc2cccnc12 (stereo unspecified) , please.
Reply: > 100 µM

Ask: Now consider COc1cccc(N2C(=O)C3c4[nH]c5ccccc5c4C4c5ccccc5CCC4C3C2=O)c1 (stereo unspecified) .
Reply: > 10 µM
